- STUDY TARGET: HLA-B*15:01
- MEASUREMENT PROTOCOL: IEDB peptide-MHC binding, purified MHC/competitive/fluorescence; filed as Kd, often an IC50 or EC50 that approximates it; bounds were set here for any values at or beyond the usual limits of such assays
- CONDITION LABEL: source organism: Bacillus anthracis str. A0488
RESULT TYPE: pKd
# pKd = -log10(concentration in molar units)

Qu. Please supply the value of reported pKd for the item VLNGAPYSY
Ans. 7.27

----------
- STUDY TARGET: HLA-B*15:01
- MEASUREMENT PROTOCOL: IEDB peptide-MHC binding, purified MHC/direct/fluorescence; filed as Kd, often an IC50 or EC50 that approximates it; bounds were set here for any values at or beyond the usual limits of such assays
- CONDITION LABEL: source organism: Escherichia coli
pKd: −log10 of the molar value.
RESULT TYPE: pKd

Qu. Complete the entry with pKd for SHDTIGPYY
Ans. ≤ 4.70

----------
- STUDY TARGET: HLA-B*15:01
- MEASUREMENT PROTOCOL: IEDB peptide-MHC binding, purified MHC/direct/fluorescence; filed as Kd, often an IC50 or EC50 that approximates it; bounds were set here for any values at or beyond the usual limits of such assays
- CONDITION LABEL: source organism: Corynebacterium glutamicum
RESULT TYPE: Kd

Qu. Check the records and state Kd for ATQPVHWFL
Ans. ≥ 20 µM

----------
- STUDY TARGET: HLA-B*44:02
- MEASUREMENT PROTOCOL: IEDB peptide-MHC binding, purified MHC/direct/fluorescence; filed as Kd, often an IC50 or EC50 that approximates it; bounds were set here for any values at or beyond the usual limits of such assays
- CONDITION LABEL: source organism: Influenza A virus (A/quail/Hong Kong/FY298/00(H9N2))
pKd: −log10 of the molar value.
RESULT TYPE: pKd

Qu. Fill in pKd for record ALTLNTMTK
Ans. ≤ 4.70

----------
- STUDY TARGET: HLA-B*07:02
- MEASUREMENT PROTOCOL: IEDB peptide-MHC binding, purified MHC/direct/fluorescence; filed as Kd, often an IC50 or EC50 that approximates it; bounds were set here for any values at or beyond the usual limits of such assays
- CONDITION LABEL: source organism: West Nile virus
pKd: −log10 of the molar value.
RESULT TYPE: pKd

Qu. Identify measured pKd associated with TRAVGKPLL
Ans. ≤ 4.70

----------
- STUDY TARGET: HLA-A*02:01
- MEASUREMENT PROTOCOL: IEDB peptide-MHC binding, purified MHC/direct/fluorescence; filed as Kd, often an IC50 or EC50 that approximates it; bounds were set here for any values at or beyond the usual limits of such assays
- CONDITION LABEL: source organism: Influenza A virus (A/tiger/Thailand/CU-T4/04(H5N1))
RESULT TYPE: Kd

Qu. Quickly give me recorded Kd for FVRTLFQQM
Ans. ≥ 20 µM

----------
- STUDY TARGET: HLA-A*23:01
- MEASUREMENT PROTOCOL: IEDB peptide-MHC binding, purified MHC/competitive/radioactivity; filed as Kd, often an IC50 or EC50 that approximates it; bounds were set here for any values at or beyond the usual limits of such assays
- CONDITION LABEL: source organism: Mammarenavirus mopeiaense
RESULT TYPE: Kd
Just so you know, I need the unit written after the number.

Qu. Report measured Kd on HLA-A*23:01; entry: PYIASRTSIV
Ans. 1590 nM

----------
Reported Kd values for a set of sequences
- STUDY TARGET: HLA-A*32:01
- MEASUREMENT PROTOCOL: IEDB peptide-MHC binding, purified MHC/competitive/radioactivity; filed as Kd, often an IC50 or EC50 that approximates it; bounds were set here for any values at or beyond the usual limits of such assays
- CONDITION LABEL: source organism: Vaccinia virus WR
Number only, in nM; omit the unit.

Some solved entries appear below for comparison.
{"INPUT SEQUENCE": "KMLNLNYIV", "Kd (nM)": 640}
{"INPUT SEQUENCE": "KTLKYSNKI", "Kd (nM)": 1.9}

Qu. Provide measured Kd on HLA-A*32:01 for HLYNILNNI please.
Ans. 72.6

Qu. State Kd on HLA-A*32:01. Entry: LTYFCFVAL
Ans. 615

Qu. Give Kd only, for RTIYNETSI , using HLA-A*32:01 data.
Ans. 1.03

Qu. Param request: Kd | system HLA-A*32:01 | item YLFSQNYSF
Ans. 1.39

Qu. State the measured Kd (HLA-A*32:01) of VTLNISSKF
Ans. 10.6

Qu. Provide HLA-A*32:01 Kd reading for ATALILVSF .
Ans. 1.42

----------
- STUDY TARGET: HLA-B*15:42
- MEASUREMENT PROTOCOL: IEDB peptide-MHC binding, purified MHC/competitive/fluorescence; filed as Kd, often an IC50 or EC50 that approximates it; bounds were set here for any values at or beyond the usual limits of such assays
- CONDITION LABEL: source organism: Brucella suis 1330
RESULT TYPE: Kd

Qu. Tell me Kd reported for RQNAPFEPI
Ans. ≥ 5 µM

----------
- STUDY TARGET: HLA-B*18:01
- MEASUREMENT PROTOCOL: IEDB peptide-MHC binding, purified MHC/competitive/fluorescence; filed as Kd, often an IC50 or EC50 that approximates it; bounds were set here for any values at or beyond the usual limits of such assays
- CONDITION LABEL: source organism: Homo sapiens
pKd: −log10 of the molar value.
# pKd per entry

Below, each entry is followed by its recorded pKd result.
{"INPUT SEQUENCE": "SQLPPACPV", "pKd": "≤ 4.70"}
{"INPUT SEQUENCE": "SLGDPLHQA", "pKd": "≤ 4.70"}

Next up:
Qu. Identify pKd associated with the sequence WTDLFDNKV
Ans. ≤ 4.70

----------
- STUDY TARGET: HLA-B*58:01
- MEASUREMENT PROTOCOL: IEDB peptide-MHC binding, purified MHC/direct/fluorescence; filed as Kd, often an IC50 or EC50 that approximates it; bounds were set here for any values at or beyond the usual limits of such assays
- CONDITION LABEL: source organism: Brucella abortus 2308
RESULT TYPE: Kd

Qu. Identify measured Kd corresponding to RMIESRMSK
Ans. ≥ 20 µM

----------
- STUDY TARGET: HLA-B*83:01
- MEASUREMENT PROTOCOL: IEDB peptide-MHC binding, purified MHC/competitive/fluorescence; filed as Kd, often an IC50 or EC50 that approximates it; bounds were set here for any values at or beyond the usual limits of such assays
- CONDITION LABEL: source organism: Yersinia pestis CO92
RESULT TYPE: Kd

Qu. Give the value of Kd reported for the following: YSFSRAYTL
Ans. ≥ 5 µM

----------
- STUDY TARGET: HLA-A*03:01
- MEASUREMENT PROTOCOL: IEDB peptide-MHC binding, purified MHC/direct/fluorescence; filed as Kd, often an IC50 or EC50 that approximates it; bounds were set here for any values at or beyond the usual limits of such assays
- CONDITION LABEL: source organism: Mammarenavirus lassaense
Quick reference: Kd of the listed items.
Expressed in nM, but write only the number.

{"INPUT SEQUENCE": "STFTRGAQK", "Kd [nM]": 78.4}

Okay, now this sequence:
Qu. Please supply the value of reported Kd for the item AVNNLVELK
Ans. 2400

----------
- STUDY TARGET: HLA-B*40:01
- MEASUREMENT PROTOCOL: IEDB peptide-MHC binding, purified MHC/direct/fluorescence; filed as Kd, often an IC50 or EC50 that approximates it; bounds were set here for any values at or beyond the usual limits of such assays
- CONDITION LABEL: source organism: Aggregatibacter actinomycetemcomitans
pKd: −log10 of the molar value.
RESULT TYPE: pKd

Qu. Identify measured pKd corresponding to RSEVELCIY
Ans. ≤ 4.70

----------
- STUDY TARGET: HLA-A*26:01
- MEASUREMENT PROTOCOL: IEDB peptide-MHC binding, purified MHC/direct/fluorescence; filed as Kd, often an IC50 or EC50 that approximates it; bounds were set here for any values at or beyond the usual limits of such assays
- CONDITION LABEL: source organism: Mycobacterium tuberculosis str. Haarlem
RESULT TYPE: Kd

Qu. Name the recorded Kd of the item RLGWRTLDF in your answer.
Ans. ≥ 20 µM

----------
- STUDY TARGET: HLA-A*01:01
- MEASUREMENT PROTOCOL: IEDB peptide-MHC binding, purified MHC/direct/fluorescence; filed as Kd, often an IC50 or EC50 that approximates it; bounds were set here for any values at or beyond the usual limits of such assays
- CONDITION LABEL: source organism: Mycobacterium tuberculosis F11
RESULT TYPE: pKd
A value of pKd is the negative decimal logarithm of a concentration given in moles per litre.

Qu. For AVNPGGNIY , write its pKd.
Ans. 5.52
